- method_summary: solvent given as SMILES
- condition_description: in CCO
endpoint: fluorescence lifetime (ns)

• CC[N+](CC)=c1ccc2c(-c3ccccc3C(=O)O)c3c(=O)oc4c5c6c(cc4c3oc-2c1)CCCN6CCC5 = 0.47
• Cc1c(OCC(=O)O)cc2c3c([nH]c2c1C)C(=O)CCC3 = 1.52
• CN1CCN(c2ccc3c4c(cccc24)C(=O)c2ccccc2-3)CC1 = 3.77

----------
Listed here: items and their measured log10 fluorescence lifetime.
- method_summary: solvent given as SMILES
- condition_description: in CC#N
endpoint: log10 fluorescence lifetime (log10 of the value in ns)

* Cc1ccc2c(c1)C(=O)c1ccncc1-2 | 0.72
* CCOC(=O)CN1C(=O)C2=C(c3ccc(N4CCCCC4)cc3)N(CC(=O)OCC)C(=O)C2=C1c1ccc(C#N)cc1 | 0.55
* N#C/C(=C\c1ccc([N+](=O)[O-])cc1)c1nc(-c2ccccc2)cs1 | 0.45
* Cc1cc2ccc(-c3cccc4cccc(-c5ccc6cc(C)c(=O)oc6c5)c34)cc2oc1=O | 0.43
* O=C1c2ccccc2-c2cccc(O)c21 | 0.99
* Cc1ccc(-c2ccc(/C=C/c3ccc(C#N)cc3)cn2)nc1 | -0.22
* c1cc2c3ccc[n+]4cccc(c5ccc[n+](c1)c25)c34 | 0.87
* COc1cc(OC)c2c(c1)C(=O)c1ccccc1-2 | -0.05
* O=C(O)c1ccccc1Nc1cccc(C(F)(F)F)c1 | 0.61
* Cc1cc(C(F)(F)F)nc2c1ccc1nc(-c3ccc(F)c(F)c3)cn12 | 0.93
* c1ccc(C[n+]2cc3ccc4c[n+](Cc5ccccc5)cc5ccc(c2)c3c45)cc1 | 0.63
* CC1=[O+][B-]2(OC(=O)C(=O)O2)OC(c2c3ccccc3cc3ccccc23)=C1 | 0.32
* CCN(CC)c1ccc2c(-c3ccccc3C(=O)[O-])c3ccc(=[N+](CC)CC)cc-3oc2c1 | 0.24
* CN1CCN(CCCN2c3ccccc3Sc3ccc(Cl)cc32)CC1 | -0.04
* CSc1sc(C(=O)c2ccccc2)c2nn[nH]c(=O)c12 | -0.39
* C(=C\c1ccccc1)/c1ccccc1 | -1.15
* COc1c2ccccc2c(OC)c2c1c1cc(Cl)ccc1n2C | 1.43
* Cc1ccc(-n2cccc2)cc1 | 0.74
* [C-]#[N+]c1ccc(-c2ccc(N)cc2)cc1 | 0.30
* COc1ccc(C#Cc2ccc(C#N)cc2)cc1OC | 0.31
* COc1ccc(C2=CC(c3ccc4cc(N(C)C)ccc4c3)=[O+][B-](F)(F)O2)cc1 | -0.38
* CSc1sc(C(N)=O)c2nnn(C)c(=O)c12 | 1.32
* CCN(CC)c1ccc(/N=N/c2nc3ccc(OC)cc3s2)cc1 | 0.43
* Cc1cccc(C)c1Nc1ccc(/C=C/c2ccc3ccccc3c2)cc1 | -0.70
* CCc1c(C)[nH]c(C2=[N+]3C(=Cc4c(C)cc(C)n4[B-]3(F)F)c3ccccc32)c1C | 0.74
* COc1ccccc1-c1nc(-c2ccccc2)c2ccccn12 | 0.88
* C/C=C/c1ccc(OC)cc1 | 0.94
* c1ccc(N(c2ccccc2)c2ccc(-c3cccc4nc5ccccc5cc34)cc2)cc1 | 0.83
* Nc1cccc2c1C(=O)c1ccccc1-2 | 0.36
* CCOC(=O)CN1C(=O)C2=C(c3ccccc3)N(CC(=O)OCC)C(=O)C2=C1c1ccccc1 | 0.83
* Cc1ccc(-c2cc(-c3ccccc3)c3c(N)nc(N4CCCC4)c(C#N)c3n2)cc1 | 1.01
* O=c1cc(C(F)(F)F)c2cc3c4c(c2o1)CCCN4CCC3 | 0.75
* N#Cc1cccc2[nH]ccc12 | 0.73
* c1ccc(-c2nn(-c3ccccc3)c3nc4ccccc4cc23)cc1 | 1.40

----------
Listed here: items and their measured fluorescence lifetime.
- method_summary: solvent given as SMILES
- condition_description: in CCCCCC
endpoint: fluorescence lifetime (ns)

- c1ccc2c(c1)[nH]c1ccccc12: 14.2
- c1ccc(-c2cc(-c3ccc4ccc5cccc6ccc3c4c56)ccn2)nc1: 8.1
- COc1ccc(C#Cc2ccc(C#N)cc2)cc1OC: 0.37
- CCCCCCC(CCCCCC)n1c(=O)c2c3ccc4cccc5c6cccc7ccc(c2c1=O)c(c76)c3c45: 9.5
- c1ccc(-c2cc(-c3ccc(-c4nc(-c5ccccn5)c(-c5ccccn5)[nH]4)cc3)cc(-c3ccccn3)n2)nc1: 0.065
- CC1=CC(C)=[N+]2C1=C(C)c1cccn1[B-]2(F)F: 6.1
- c1coc(-c2nc3ccccc3[nH]2)c1: 1.48
- Cc1ccc(-c2ccc(/C=C/c3cccn3C)cn2)nc1: 0.86
- CCc1c(C(=O)OC)c(C(=O)OC)c2ccc(-c3ccccc3)nn12: 21.1
- CCCCCCC(CCCCCC)N1C(=O)c2cccc3c(-c4ccc(N(C)C)cc4)ccc(c23)C1=O: 3.47
- O=C(O)c1ccc2ccc3cccc4ccc1c2c34: 8.68
- CN(C)c1ccc(/C=C/C=C/c2ccc(C#N)cc2)cc1: 0.28
- CC(C)[Si](C#Cc1ccc(C#C[Si](C(C)C)(C(C)C)C(C)C)c2nc3cc4c(cc3nc12)[C@H]1c2ccccc2[C@@H]4c2ccccc21)(C(C)C)C(C)C: 3.1
- Cc1cc(C)c(B(c2cc3c4c(c(B(c5c(C)cc(C)cc5C)c5c(C)cc(C)cc5C)cc5c4c2CCC5)CCC3)c2c(C)cc(C)cc2C)c(C)c1: 14.6
- c1ccc2c(c1)cc(-c1cc(-c3nccs3)nc(-c3nccs3)c1)c1ccccc12: 5
- C[Si](C)(C)c1ccc2ccc3cccc4ccc1c2c34: 66.9
- Nc1ccc(/C=C/c2ccc3ccccc3c2)cc1: 0.2

----------
- method_summary: solvent given as SMILES
- condition_description: in Cc1ccccc1
Cut-off 6 ns on fluorescence lifetime: below means true, at or above means false.

- Cn1nc(-c2ccccc2)c2n[nH]nc2c1=O: true
- C(=C\c1cc(/C=C/c2ccc(-n3c4ccccc4c4ccccc43)cc2)cc(/C=C/c2ccc(-n3c4ccccc4c4ccccc43)cc2)c1)/c1ccc(-n2c3ccccc3c3ccccc32)cc1: true
- CCCCC1=Cc2c3ccc4cccc5ccc(c6cc(-c7ccccc7)n(c26)P1(=O)c1ccccc1)c3c45 (centres undefined): true
- O=C1c2cc(F)ccc2-c2cnccc21: true
- CCCCC(CC)CN1C(=O)c2cc(Oc3ccc(OC)cc3)c3c4c(Oc5ccc(C(C)(C)C)cc5)cc5c6c(cc(Oc7ccc(C(C)(C)C)cc7)c(c7c(Oc8ccc(OC)cc8)cc(c2c37)C1=O)c64)C(=O)N(c1c(C(C)C)cccc1C(C)C)C5=O (centres undefined): true
- CC1(C)c2ccccc2N(c2ccc(-c3nc(-c4ccccc4)cc(-c4ccccc4)n3)cc2)c2ccccc21: false
- CC1(C)OB(c2cc3ccc4cccc5ccc(c2)c3c45)OC1(C)C: false
- Cc1cc(C)c(B(c2cc3ccc4cccc5ccc(c2)c3c45)c2c(C)cc(C)cc2C)c(C)c1: false
- O=P1(c2ccccc2)C(c2cc(C(F)(F)F)cc(C(F)(F)F)c2)=Cc2c3ccc4cccc5ccc(c6cc(-c7ccccc7)n1c26)c3c45 (centres undefined): true
- CN(C)c1ccc(/C=C/c2ccc(-c3ccc(/C=C/c4ccc(N(C)C)cc4)s3)s2)cc1: true
- Cc1c(OCC(=O)O)cc2c3c([nH]c2c1C)C(=O)CCC3: true
- COc1ccc(N(c2ccccc2)c2cc3ccc4cc(N(c5ccccc5)c5ccc(OC)cc5)cc5ccc(c2)c3c45)cc1: false
- CCCCCCC(CCCCCC)N1C(=O)c2cccc3c(-c4ccc(C#N)cc4)ccc(c23)C1=O: true
- COc1ccc(C2=CC(c3ccc4cc(N(C)C)ccc4c3)=[O+][B-](F)(F)O2)cc1: true
- CCCCCCCCOc1ccc2c3cccc4c(OCCCCCCCC)ccc(c5cccc1c52)c43: true
- c1ccc2c(c1)-c1ccccc1C21c2ccccc2-c2c1c1c3ccccc3ccc1c1ccccc21: true
- Cc1ccc2c(c1)C(c1ccccc1)(c1ccccc1)c1cc(C)ccc1N2c1cc(C(C)C)c(B2c3ccccc3Sc3ccccc32)c(C(C)C)c1: false
- COc1ccc2c(=O)c3c([nH]c2c1)-c1cc(Cl)ccc1NC3(C)C: false
- C(=C\c1ccc(N(c2ccc(/C=C/c3ccc(N(c4ccccc4)c4ccccc4)cc3)cc2)c2ccc(/C=C/c3ccc(/C=C/c4ccc(N(c5ccc(/C=C/c6ccc(N(c7ccccc7)c7ccccc7)cc6)cc5)c5ccc(/C=C/c6ccc(N(c7ccccc7)c7ccccc7)cc6)cc5)cc4)c4nsnc34)cc2)cc1)/c1ccc(N(c2ccccc2)c2ccccc2)cc1: true
- COc1ccc(-c2ccc(-c3ccc(C#N)s3)s2)cc1: true
- CCCCCCCCC1(CCCCCCCC)c2ccccc2-c2ccc(-c3nnc(-c4cccc(-n5c6ccc(C(C)(C)C)cc6c6cc(C(C)(C)C)ccc65)c4)o3)cc21: false
- c1ccc2c(c1)CCc1ccccc1N2c1c2ccccc2c(N2c3ccccc3CCc3ccccc32)c2ccccc12: false
- O=C(O)COc1ccc2[nH]c3c(c2c1)CCCC3=O: true
- c1cc2cc(c1)c1ccc3ccc4ccc(cc4c3c1)c1ccc3ccc4ccc(cc4c3c1)c1cccc2c1: true
